Tested on: M. mycetomatis genome strain MM55
testProtocol: CLSI M38-A2 based in vitro susceptibility screening (XTT or resazurin), growth at fixed concentration
Assay type: cell-based, Madurella mycetomatis
measurementConditions: Madurella mycetomatis, 100 uM, mean of three replicates; read-out: Percentage survival at 100um, 100 uM mean
Kindly state activity at 100 µM for each of the entries shown.
Answers are plain numbers, in %.

- compound: "COc1nc2ccc(Br)cc2cc1[C@@H](c1ccccc1)[C@@](O)(CCN(C)C)c1cccc2ccccc12"
  quantityMeasured: "activity at 100 µM"
  result: 84.6
- compound: "O=C(c1cc(O)nc2ccccc12)N1CCN(c2ccccc2)CC1"
  quantityMeasured: "activity at 100 µM"
  result: 79.5
- compound: "CC(=O)N[C@H](C)C(=O)N[C@H](Cc1ccccc1)C(=O)O"
  quantityMeasured: "activity at 100 µM"
  result: 86.9
- compound: "Cc1oncc1C(=O)Nc1ccc(C(F)(F)F)cc1"
  quantityMeasured: "activity at 100 µM"
  result: 62.5

Here is another compound to look at.
Suppose we examine the compound Cc1ncc([N+](=O)[O-])n1CC(C)O (centres unmarked) ; what activity at 100 µM value has been reported?
100

###

System: M. mycetomatis genome strain MM55
testProtocol: CLSI M38-A2 based in vitro susceptibility screening (XTT or resazurin), growth at fixed concentration
Assay type: cell-based, Madurella mycetomatis
measurementConditions: Madurella mycetomatis, 100 uM, first replicate column; read-out: Percentage survival at 100um, 100 uM A
quantityMeasured: activity at 100 µM (%)
Numbers only, in %.

Example results:
- molecule: "CC(C)(C)NC(=O)N[C@H](C(=O)N1C[C@H]2[C@@H]([C@H]1C(=O)NC(CC1CCC1)C(=O)C(N)=O)C2(C)C)C(C)(C)C (stereo partly shown)"
  quantityMeasured: "activity at 100 µM"
  unitTag: "%"
  result: 98.5
- molecule: "COc1ccc(NS(=O)(=O)c2ccc(Cl)s2)cn1"
  quantityMeasured: "activity at 100 µM"
  unitTag: "%"
  result: 64.6
- molecule: "NC(=O)c1ccc(I)c([N+](=O)[O-])c1"
  quantityMeasured: "activity at 100 µM"
  unitTag: "%"
  result: 89.6
- molecule: "CN1CCN(Cc2ccc(-c3cnc4[nH]cc(-c5ccc6[nH]ccc6c5)c4c3)cc2)CC1"
  quantityMeasured: "activity at 100 µM"
  unitTag: "%"
  result: 27.2
- molecule: "[N-]=[N+]=N[C@H]1C[C@H](n2ccc(=O)[nH]c2=O)O[C@@H]1CO"
  quantityMeasured: "activity at 100 µM"
  unitTag: "%"
  result: 91.5

For each of the molecules below, note its activity at 100 µM.
1. Nc1nc2c(ncn2[C@@H]2O[C@H](CO)[C@@H](O)[C@H]2F)c(=O)[nH]1
2. O=S(=O)(Nc1ccc(O)cc1)c1cccc2cccnc12
3. OC[C@@H]1CC[C@H](n2cnc3c(O)ncnc32)O1
4. Nc1nc(O)c2ncn(COCCO)c2n1
5. CC(C)(C)c1ccc(Oc2ccc(N)cc2)cc1

1. 85.8
2. 98.4
3. 90.3
4. 88.4
5. -4.12

For each of the molecules below, note its activity at 100 µM.
1. CCCCc1ccc(C(=O)O)nc1
2. COc1cccc(N2CCN(C3=Nc4c(F)cccc4[C@H](CC(=O)O)N3c3cc(C(F)(F)F)ccc3OC)CC2)c1
3. C[C@@]1(O)[C@H](O)[C@@H](CO)O[C@H]1n1ccc2c(N)ncnc21

91.2
86.6
80.2

For each of the molecules below, note its activity at 100 µM.
1. O=C(c1cc(O)nc2ccccc12)N1CCN(c2ccccc2)CC1
2. O=C(NCCN1CCCCC1)c1cccc(C(F)(F)F)c1
3. CC[C@@]1(O)C(=O)OCc2c1cc1n(c2=O)Cc2cc3c(CN(C)C)c(O)ccc3nc2-1
4. Nc1cnn(C2OC(CO)C(O)C2O)c(=O)n1 (stereo not shown)

83.7
77.6
94.8
88.8

For each of the molecules below, note its activity at 100 µM.
1. O=C(O)c1cc(-c2ccccc2)nc2ccccc12
2. C[C@H](Cn1cnc2c(N)ncnc21)OCP(=O)(O)O

91
94.5

###

Kindly state activity at 100 µM for each of the entries shown.
Test system: M. mycetomatis genome strain MM55
testProtocol: CLSI M38-A2 based in vitro susceptibility screening (XTT or resazurin), growth at fixed concentration
Type: cell-based, Madurella mycetomatis
measurementConditions: Madurella mycetomatis, 100 uM, replicate 1; read-out: Percentage survival at 100um, 100 uM A

Example results:
- smilesNotation: "COc1c(NC(=O)[C@H]2CC[C@@H](COc3ccc([N+](=O)[O-])cc3)CC2)c(F)cc2c(=O)c(C(=O)O)cn(C3CC3)c12"
  activity at 100 µM: "86.1%"
- smilesNotation: "O=C(NCc1ccc2c3c(cccc13)C(=O)N2)c1cccs1"
  activity at 100 µM: "75.7%"
- smilesNotation: "O=C(N[C@H](CCS)C(=O)N[C@H](Cc1ccccc1)C(=O)O)c1cc2ccccc2[nH]1"
  activity at 100 µM: "82.1%"

For each of the compounds below, note its activity at 100 µM.
1. CCCCOC(=O)Nc1cc2nc(C3CCCCC3)[nH]c2cc1N(CC)CC
2. C[C@@H]1O[C@@H]1P(=O)(O)O
3. Nc1nc(N)c2c(Sc3ccccc3)cccc2n1

1. 93.6%
2. 81.5%
3. -1.97%

###

Kindly state activity at 100 µM for each of the entries shown.
System: M. mycetomatis genome strain MM55
testProtocol: CLSI M38-A2 based in vitro susceptibility screening (XTT or resazurin), growth at fixed concentration
Type: cell-based, Madurella mycetomatis
measurementConditions: Madurella mycetomatis, 100 uM, mean of three replicates; read-out: Percentage survival at 100um, 100 uM mean
Numbers only, in %.

- compound: "CC[N+]1(C/C2=C/CCCCCC2)CCC(NC(=O)C2c3cc(Cl)ccc3Oc3ccc(Cl)cc32)CC1 (stereo not shown)"
  testedTarget: "M. mycetomatis genome strain MM55"
  activity at 100 µM / %: -2.01
- compound: "O=C(Cn1cnc2ccccc2c1=O)Nc1ccccc1"
  testedTarget: "M. mycetomatis genome strain MM55"
  activity at 100 µM / %: 83.9
- compound: "CCc1cc(CCCOc2c(C)cc(-c3noc(C(F)(F)F)n3)cc2C)on1"
  testedTarget: "M. mycetomatis genome strain MM55"
  activity at 100 µM / %: 73
- compound: "CC#C[C@]1(O)CC[C@H]2[C@@H]3CCC4=CC(=O)CCC4=C3[C@@H](c3ccc(N(C)C)cc3)C[C@@]21C"
  testedTarget: "M. mycetomatis genome strain MM55"
  activity at 100 µM / %: 80.3
- compound: "COc1ccc(CNC(=O)C(NS(=O)(=O)c2ccc3nc(C)sc3c2)C(C)C)cc1 (stereo not shown)"
  testedTarget: "M. mycetomatis genome strain MM55"
  activity at 100 µM / %: 75.7

For each of the compounds below, note its activity at 100 µM.
1. Nc1nc2c(ncn2[C@@H]2O[C@H](CO)[C@@H](O)[C@H]2F)c(=O)[nH]1
2. NC(=O)c1nccn([C@@H]2O[C@H](CO)[C@@H](O)[C@H]2O)c1=O
3. CCc1cc(O)c(Oc2ccc(C(N)=O)cc2F)cc1F
4. Nc1ccc2oc(=O)ccc2c1I
5. CCOC(=O)/C=C/[C@H](C[C@@H]1CCNC1=O)NC(=O)[C@H](CC)n1cccc(NC(=O)c2cc(C)on2)c1=O

1. 83.6
2. 86.1
3. 80.4
4. 64.9
5. 68.4

For each of the compounds below, note its activity at 100 µM.
1. O=C(CC1Sc2ncnn2C1=O)Nc1ccc(Br)cc1 (stereo not shown)
2. Cc1cc(O)c2c(c1)C(=O)c1c(I)c(O)c(I)c(O)c1C2=O
3. O=C(/C=C/n1cnc(-c2cc(C(F)(F)F)cc(C(F)(F)F)c2)n1)NNc1cnccn1
4. OC[C@@H]1CC[C@H](n2cnc3c(O)ncnc32)O1
5. CC(C)Oc1ccc(-c2nc(-c3cccc4c3CC[C@@H]4NCCO)no2)cc1C#N
6. O=C(O)c1cc(-c2ccccc2)nc2ccccc12
7. Nc1nc(O)c2ncn(COCCO)c2n1
8. NC1C2CC3CC(C2)CC1C3 (stereo not shown)

[-1.13, 12.4, 102, 87.3, 2.78, 87.9, 84.1, 78]

Suppose we examine the compound `NC(=O)c1cnccn1` ; what activity at 100 µM value has been reported?
60

###

System: M. mycetomatis genome strain MM55
testProtocol: CLSI M38-A2 based in vitro susceptibility screening (XTT or resazurin), growth at fixed concentration
Format: cell-based, Madurella mycetomatis
measurementConditions: Madurella mycetomatis, 100 uM, replicate (first column); read-out: Percentage survival at 100um, 100 uM A
Kindly state activity at 100 µM for each of the entries shown.
Give bare numbers, in %.

Example results:
- compound: "CNCC(=O)OCc1cccnc1N(C)C(=O)OC(C)[n+]1cnn(C[C@](O)(c2cc(F)ccc2F)[C@@H](C)c2nc(-c3ccc(C#N)cc3)cs2)c1 (some centres unmarked) [MMV1634494, Isavuconazonium, reference compound]"
  activity at 100 µM / %: 2.09
- compound: "COc1cc(C)c2c(Oc3cccc(C(F)(F)F)c3)c(OC)cc(NC(C)CCCN)c2n1 (centres unmarked) [MMV000043, Tafenoquine, reference compound]"
  activity at 100 µM / %: 53.1
- compound: "OB1OCc2cc(Cl)ccc21"
  activity at 100 µM / %: 40.7
- compound: "Cc1nc(Nc2ccc(F)cc2)nc(N2CCc3ccccc3C2C)c1C (centres unmarked)"
  activity at 100 µM / %: 53.1
- compound: "CCC(C)n1ncn(-c2ccc(N3CCN(c4ccc(OCC5COC(Cn6cncn6)(c6ccc(Cl)cc6Cl)O5)cc4)CC3)cc2)c1=O (centres unmarked) [MMV637528, Itraconazole, reference compound]"
  activity at 100 µM / %: -3.71
- compound: "COc1ccc2c(c1)cc(CNC(=O)c1cc3ccccc3o1)n2CC(=O)O"
  activity at 100 µM / %: 90
- compound: "Cc1cc(C2CCCCC2)n(O)c(=O)c1"
  activity at 100 µM / %: -2.39

Here is another compound to look at.
Suppose we examine the compound `c1ccc(-c2nnc3c4ccccc4c(N4CCNCC4)nn23)cc1` ; what activity at 100 µM value has been reported?
10.9
